# procedure-text: in vitro
# Design: Viability of infected HeLa host cells, resazurin conversion, bulk resorufin fluorescence relative to DMSO
# experimental-setup: human, hela cells; bulk resorufin, mean of 2
Give viability at 28.5 h, 10 µM for every item shown.
Please reply with the bare figure in % and do not write the unit itself.

Query string: Please look up its viability at 28.5 h, 10 µM: CC1=NN(c2ccc(C)cc2)C(=O)/C1=C\Nc1ccc(S(=O)(=O)Nc2nc(C)cc(C)n2)cc1 [CBK262398]
Result string: 118

Query string: Please look up its viability at 28.5 h, 10 µM: COc1ccc2[nH]cc(CCNC(=O)c3ccc(Cl)c(Cl)c3)c2c1 [CBK115870]
Result string: 92.1

Query string: Please look up its viability at 28.5 h, 10 µM: Cc1ccc(C(=O)/C=C\Nc2ccc(S(=O)(=O)Nc3cc(C)nc(C)n3)cc2)cc1 [CBK264384]
Result string: 104

Query string: Please look up its viability at 28.5 h, 10 µM: O=C(Nc1ccc2[nH]ccc2c1)c1ccccc1Nc1cccc(C(F)(F)F)c1 [CBK149583]
Result string: 112

---

# procedure-text: in vitro
# Design: Viability of infected HeLa host cells, resazurin conversion, bulk resorufin fluorescence relative to DMSO
# experimental-setup: human, hela cells; bulk resorufin, mean of 2
endpoint: viability at 28.5 h, 5 µM (%)
Please reply with the bare figure in % and do not write the unit itself.

Query string: Please look up its viability at 28.5 h, 5 µM: CN1CCN(c2ccc3ccn(S(=O)(=O)c4ccc([N+](=O)[O-])cc4)c3n2)CC1 [CBK070757C]
Result string: 87.7

Query string: Please look up its viability at 28.5 h, 5 µM: O=C(NCCc1c[nH]c2ccc(Cl)cc12)c1ccc(Cl)cc1Cl
Result string: 93.9

Query string: Please look up its viability at 28.5 h, 5 µM: CN(C)[C@H]1CCC[C@@H]1C(=O)Nc1ccc(Cl)c(Cl)c1
Result string: 109

Query string: Please look up its viability at 28.5 h, 5 µM: Cc1noc(NS(=O)(=O)c2ccc(N/C=C\C(=O)c3cccnc3)cc2)c1C
Result string: 103

Query string: Please look up its viability at 28.5 h, 5 µM: Cc1ccc(C(=O)/C=C\Nc2ccc(S(=O)(=O)Nc3cc(C)nc(C)n3)cc2)cc1
Result string: 108

Query string: Please look up its viability at 28.5 h, 5 µM: CCCCC(=O)/N=C(\N)Nc1nc2ccccc2o1
Result string: 102

Query string: Please look up its viability at 28.5 h, 5 µM: Cn1cncc1C(=O)NCc1ccccc1
Result string: 107

Query string: Please look up its viability at 28.5 h, 5 µM: N#CC(CCCN1CCN(c2ccccc2)CC1)(c1ccccc1)c1ccccc1 [CBK002243C]
Result string: 105

Query string: Please look up its viability at 28.5 h, 5 µM: COc1ccc([C@H]2CN(Cc3ccccc3)[C@@H]3CCN(C(=O)Cc4ccsc4)C[C@H]23)cc1
Result string: 93.6

---

# procedure-text: in vitro
# experimental-setup: human, hela cells, % viability
endpoint: viability at 28.5 h, 10 µM (%)
Please reply with the bare figure in % and do not write the unit itself.

Query string: Please look up its viability at 28.5 h, 10 µM: O=C(CSCC(=O)c1ccc(F)cc1)Nc1ccc2ccccc2c1 [CBK263264]
Result string: 88.1

Query string: Please look up its viability at 28.5 h, 10 µM: CC(C)c1csc(NC(=O)CC2CCN(C(=O)CC3CCCCC3)CC2)n1 [CBK285963]
Result string: 82.3

Query string: Please look up its viability at 28.5 h, 10 µM: Cc1noc(C)c1S(=O)(=O)Nc1cc(C(F)(F)F)ccc1N1CCOCC1 [CBK062545]
Result string: 90.4

Query string: Please look up its viability at 28.5 h, 10 µM: O=C(O)Cc1c[nH]c2ccccc12 [CBK228897G]
Result string: 102

Query string: Please look up its viability at 28.5 h, 10 µM: O=C(Cc1ccsc1)N1CCCC2(CCN(Cc3ccccc3)C2)C1 (stereo not shown) [CBK136868]
Result string: 86.7

Query string: Please look up its viability at 28.5 h, 10 µM: CCOC(=O)c1c(N)sc2c1CC(c1ccccc1)SC2c1ccccc1 (stereo not shown) [CBK293955]
Result string: 87.5

Query string: Please look up its viability at 28.5 h, 10 µM: O=C(CC1(C(F)(F)F)NCCN1)c1ccco1 [CBK022373]
Result string: 82.6

Query string: Please look up its viability at 28.5 h, 10 µM: CCOC(=O)c1[nH]c2ccccc2c1NC(=O)c1ccc(Cl)cc1Br [CBK160140]
Result string: 96.7

Query string: Please look up its viability at 28.5 h, 10 µM: O=C(NCc1c(F)cccc1F)c1ccc(-c2ccc(OC(F)(F)F)cc2)nc1 [CBK161007T]
Result string: 97.6

Query string: Please look up its viability at 28.5 h, 10 µM: COc1ccc(CCNC(=O)CN2CCCCC2C)cc1 (stereo not shown) [CBK304827]
Result string: 94.4

Query string: Please look up its viability at 28.5 h, 10 µM: Cc1ccccc1C(=O)Nc1ccc(F)c(F)c1 [CBK058249]
Result string: 96.1

Query string: Please look up its viability at 28.5 h, 10 µM: C1=Nn2c(nnc2-c2ccncc2)SC(c2ccccc2)=C1 [CBK288535]
Result string: 101

Query string: Please look up its viability at 28.5 h, 10 µM: COCc1nc2n(n1)CC(NC1CCc3ccccc3CC1)CC2 (stereo not shown) [CBK304737]
Result string: 96.1

Query string: Please look up its viability at 28.5 h, 10 µM: COc1nccc(N2CCN(C)C3(CCNC(=O)CC3)C2)c1C#N (stereo not shown) [CBK307676]
Result string: 116

Query string: Please look up its viability at 28.5 h, 10 µM: Cc1ccc(-c2nccnc2OCc2ccc3c(c2)OCO3)c(C)c1 [CBK106982]
Result string: 93.1

Query string: Please look up its viability at 28.5 h, 10 µM: CCc1nc2ccc(C(=O)N(C)CCN(C)C)cn2c1N(C)Cc1cc2ccccc2s1 [CBK146551]
Result string: 89.3

Query string: Please look up its viability at 28.5 h, 10 µM: CS(=O)(=O)NCC1CCCN(C(=O)Nc2cccc(Cl)c2)C1 (stereo not shown) [CBK305736]
Result string: 79.5

Query string: Please look up its viability at 28.5 h, 10 µM: CC(=O)NCCSc1nccnc1NC(C)C [CBK105289]
Result string: 92.8

Query string: Please look up its viability at 28.5 h, 10 µM: Cc1ccccc1-c1ocnc1C(=O)NCc1ccco1 [CBK282408]
Result string: 84.5

Query string: Please look up its viability at 28.5 h, 10 µM: Cn1c(OCc2cccnc2)nc2c1c(=O)n(Cc1ccc(Cl)c(Cl)c1)c(=O)n2C [CBK267498]
Result string: 84.2

Query string: Please look up its viability at 28.5 h, 10 µM: CCN(CC)CCn1c2ccc(C)cc2c2nc(C)sc21 [CBK269764C]
Result string: 99.7

Query string: Please look up its viability at 28.5 h, 10 µM: CCN(CC)CCOc1cc(=O)oc2ccccc12 [CBK022747C]
Result string: 105

Query string: Please look up its viability at 28.5 h, 10 µM: O=C(O)c1c(Cl)c(C(=O)O)c(C(=O)O)c(Cl)c1C(=O)O [CBK261177]
Result string: 96.8

Query string: Please look up its viability at 28.5 h, 10 µM: CN1CCN(c2nc3c(N)ncn(CC(O)CO)c-3n2)CC1 (stereo not shown) [CBK262571]
Result string: 108

Query string: Please look up its viability at 28.5 h, 10 µM: Cc1cc2nc(-c3ccc(C(=O)O)cc3)[nH]c2cc1C [CBK096054]
Result string: 91.6

Query string: Please look up its viability at 28.5 h, 10 µM: COc1ccc(CN2CCCN(S(=O)(=O)c3ccc(C(=O)c4ccccc4)cc3)CC2)cc1F [CBK062855]
Result string: 97.7

Query string: Please look up its viability at 28.5 h, 10 µM: Cc1cn([C@H]2C[C@@H](O)[C@@H](CO)O2)c(N)nc1=O [CBK201327]
Result string: 100

Query string: Please look up its viability at 28.5 h, 10 µM: Cc1ccnc(NC(=O)C2CCCN(C(=O)OC(C)(C)C)C2)c1 (stereo not shown) [CBK305875]
Result string: 82.7

Query string: Please look up its viability at 28.5 h, 10 µM: CC(C)Cn1cnc2c(c1=N)C(c1ccccc1)c1ccc(O)cc1O2 (stereo not shown) [CBK287864]
Result string: 101

Query string: Please look up its viability at 28.5 h, 10 µM: O=C(Oc1c(Cl)cc(Cl)c2cccnc12)c1cc(S(=O)(=O)N2CCCCC2)ccc1Cl [CBK264518]
Result string: 100

Query string: Please look up its viability at 28.5 h, 10 µM: COc1ccc([C@H]2C3CCCCC3[C@@H]2NC(=O)C2CCCO2)cc1 (stereo partly shown) [CBK282990]
Result string: 108

Query string: Please look up its viability at 28.5 h, 10 µM: COCCNCCOc1c(Cl)cc(C)cc1Br [CBK265087G]
Result string: 113

Query string: Please look up its viability at 28.5 h, 10 µM: OCCOc1ccnc2ccccc12 [CBK113395]
Result string: 95.8

Query string: Please look up its viability at 28.5 h, 10 µM: O=C(Cc1ccc(F)cc1F)N1CCC(Sc2ccc(-c3ccccc3)cc2)CC1 [CBK131950]
Result string: 105

Query string: Please look up its viability at 28.5 h, 10 µM: FC(F)(F)c1cc(-c2cn3ccnc3c(NCCc3cccnc3)n2)cc(C(F)(F)F)c1 [CBK066146]
Result string: 98.1

Query string: Please look up its viability at 28.5 h, 10 µM: CCCS(=O)(=O)NC1CCN(c2nc(C(F)(F)F)nc3ccsc23)CC1 [CBK304591]
Result string: 87

Query string: Please look up its viability at 28.5 h, 10 µM: Cc1ccccc1-c1nnc2n1CCCN2 [CBK200089]
Result string: 115

Query string: Please look up its viability at 28.5 h, 10 µM: C#CC1(NC(=O)NS(=O)(=O)c2ccc(C)cc2)CCCCC1 [CBK028805]
Result string: 96.9

Query string: Please look up its viability at 28.5 h, 10 µM: Cc1sc2ncn(CC(=O)Nc3cccnc3)c(=O)c2c1C [CBK306057]
Result string: 92.5

Query string: Please look up its viability at 28.5 h, 10 µM: Cc1ccc(OCC(=O)N2CCCCC2c2nccs2)cc1 (stereo not shown) [CBK305091]
Result string: 88.7
